The origin of these recorded values is the DeepSol protein solubility set.

assay: soluble on expression in E. coli; label from the status in PepcDB or PDB records
experimental_readout: soluble on expression in E. coli

* MSNNIVPSSVLPAGENLLTVPDYAERIGQPVTRVFDQIGEHKLICVLDNGIKKIPEAFLSEKGTTNKFVPGVIALLSDGGYTDQEIFKFLFTEDESLPGRPIDAIHGHLAREVMRRAQAMGF | soluble
* MSLHISVMGELDSKADVDRLLESIDENCDCEIHLTFLDANVVPREIVEKIVKLKEHNKCKIFVLKAYLYSYFLSLGISCFLVKKKSILNKDFESKEKLSSQTFEPEKVEKFLWDIYDKYGFDFTEYRKDSIIRRIKISMLRYCMTNFDEFSHLALTDQDVFEQLFLDFSINTTNFFRDPEVFMFLREKVLLFLDSYSHIRIWCVGCSNGKEPYSLAIILKELGMLHKVQIYATDINPYVIEEAKNGLYSVSTINTDIANYKKSGGSKNFTDYFEVNGNYMKVKDDFKDNILFFQHSVIEKGILNEFQMILCRNVMIYFDIPLQKKVLRHFYNSLDSGGFLVMGKSEGMLLNNGYEYFADYNEKYSVYRRKEGHHHHHH | soluble
* MGHHHHHHSHMANSMANSMIRNKVMEQSFIEYSLGKDASSAVLWVYPARKPRGKAIIMCPGGGFNQIASDHEGRDFAAWFNNQGITYAVLNYRMPHGDVEVIREDIREAIRLIRRQSAEWGIHQLGVMGASIGGYIAATAATLYTGTDRPDFQVLLYPVISMTDRLTHWPSRERMLGETISEGLKETLSLELHVTADTPPTFIVLAEDDQAVSPLNSIVYYTALLKHGVSAGLHIYPEGGHSFGFRDSFIYKELWTDELQKWLLTF | soluble

---

assay: soluble on expression in E. coli; label from the status in PepcDB or PDB records
experimental_readout: soluble on expression in E. coli

See these solved cases before continuing.
- MTDARTTVVVITHNRCAEVLRTLDRLAELPERPAVIVTDNGSTDGTAAAVARHHPGVRLLRSGRNLGAVGRNLAVRQVTTPYVAFCDDDSWWAPGSLSGAADLLDRYPAVGSVTARILVEPEGTEDPIVEELRDSPVPRPDWLPGPALGSFLAAATVLRTDAFRAAGGFHPRLWLGGEEELLAADLAANGWWLTYAGQLTIHHHPSGVRDSTVRRSHGIRNTLWFTWLRRPVGPALRRTLHLARTVPRDTASLRAFAEATAALPWVLRERRVLPPEVEARLRALEPAQRDSTARSYTGLEHHHHHH: not soluble
- MAHHHHHHMHAEAAAEAAMPVIATLSSRVVRIMGLNPGYMTLQGSNTYLVGTGQERLLIDSGEGVEGYGHLLQKAVAEESTRLGGPVHISKLLLTHWHGDHIGGVETVRRLFPQVQLLKQPSQYAHTEVDALCQVPPEVVKVEGATLQLVHTPGHTDDHLCAFLQEERALFTSDTVLGTGTSVFSSFRDYMASLHVLERMKPERLYPAHGPVVEDGTARIEEIIRHRHTREKQILQVLCERTHGVSALDSEKGLTVRELVDTIYTTIPAALKTAAGTNVFHHVKKLLNEGRVVVRYAPADLVHFLKDATDYTVFGEGADADVKVIERILTEFRVAAAGVSSGAP: soluble
- MSLAAVFPLADFRRAGFDRAGESDAWKDSIIKGDCVAALDALPSQSVDAIFADPPYNLQLGGTLHRPDQSLVDAVDDEWDQFASFDAYDAFTRAWLLACRRVLKPNGTIWVIGSYHNIFRVGAMLQNLDFWILNDIVWRKTNPMPNFKGRRFQNAHETMIWASRDPKAKSYTFNYDALKASNDDVQMRSDWLFPICSGHERLKGDDGKKVHPTQKPEALLARIIMASTKPGDIVLDPFFGSGTTGAVAKRLGRHFVGIEREQDYIDAASARITAVEPLGKAELTVMTGKKAEPRVAFNTLVESGLVRPGQVLTDARRRYSAIIRADGTLASGGTAGSIHRLGAKVQGLDACNGWTFWHFEDGDALKPIDDLRTIIRSEMAKAEGHHHHHH: soluble
- MGSDKIHHHHHHMTKKRIFVTGASGCIGHYISETLIQETDYELYLLVRNPSKLQVDTQIRPGITVLQGDMQNISQFADLLSTIDIAVLTATAWGGEQTFDINVSKTIELLNLLDPDRCQQVIYFSTASVLDSHNQPLKEAGEIGTDYIRSKYECLHKISELGIASKITTVFPTLVLGGDSKKPYSHLTSGIPEVTKYVNLIRFLQADGSFHFIHGKDIASVVKYLIVNPPQENTSRRLVLGQKRLTANQAIEEVCTYLGKKISFRIPLSLSLANLIIAVFRIQMADWDRFCMNYRHFTYDTVINPDSFGLPNYCATMSDVLKISGVDSSHQ: not soluble

# evaluate next
Query :: May I ask what soluble on expression in E. coli has been recorded for MGSDKIHHHHHHMDNIKQLSRLIIFAEVVQQGSFTGAAKQLGITKSAVSQQIKSLEADMDIRVLNRTTRGVSTTALGQKLLSRCQVLKDQVDLIFKDIVNAEENPRGRFAITLPHSLESNVVMPAIEQLCIEYPGIEPEIIVSDSSLDLVENNLDVAIHAGDLPDSSYRALPIGTITEIFCATPLYLNKNFTPQKLSDLAQLKWISTSWQKQKMSVYNSTNKEKVTIELTQFSKVNTFSTALAMALRHLGLVLLPDNVAKPLIKSGELVHIMEQFTGPVWPVHTLHAYQREKPVHLTRFHQLLCNHFHNL ?
Result :: not soluble
